Test system: C. glabrata
Test: Checkerboard FIC assay in combination with fluconazole (MIC alone and in combination, FICI)
Type: cell-based, Candida glabrata
Conditions: in combination with fluconazole, C. glabrata; fluconazole MIC lowered to 8 ug/mL
Experimental: The ability of the compounds to synergize with azoles against C. glabrata was evaluated by the checkerboard assay, a common laboratory method used to evaluate synergy, antagonism, and indifference using fractional inhibitory concentrations (FICs) and FIC indices (FICI). The test compounds were supplied as a powder and dissolved in dimethylsulfoxide (DMSO) on the day of assay. Stock solutions were prepared at 640 ug/mL. […] FIC values were determined using a broth microdilution method (CLSI; 1, 3). […]
Endpoint Label: Concentration of Methylgene compound to synergize fluconazole MIC to 8 ug/mL (µg/mL)
Write the number in µg/mL without appending the unit.

// fetch Concentration of Methylgene compound to synergize fluconazole MIC to 8 ug/mL given entry CN(C)CCSCC(=O)Nc1ccc(CCCCc2ccc(CC(=O)NO)cc2)cc1 [Example 38]
2

Kindly indicate its recorded Concentration of Methylgene compound to synergize fluconazole MIC to 8 ug/mL. Item: CN1CCC(C(=O)Nc2cccc(CCCCc3ccc(CC(=O)NO)cc3)c2)CC1 [Example 43]
2

Give the measured Concentration of Methylgene compound to synergize fluconazole MIC to 8 ug/mL for COCCOCCOCCOCCC(=O)Nc1ccc(CCCCc2ccc(CC(=O)NO)cc2)cc1 [Example 37]
0.5

Determine its reported Concentration of Methylgene compound to synergize fluconazole MIC to 8 ug/mL: Nc1ccc(CCCCc2ccc(CC(=O)NO)cc2)cc1 [Example 31]
0.5

Could you please provide reported Concentration of Methylgene compound to synergize fluconazole MIC to 8 ug/mL for O=C(Cc1ccc(CCCCc2ccc(NC(=O)NCCN3CCOCC3)cc2)cc1)NO [Example 47] ? Thanks!
4
